B1: tRNA (parent)
chain: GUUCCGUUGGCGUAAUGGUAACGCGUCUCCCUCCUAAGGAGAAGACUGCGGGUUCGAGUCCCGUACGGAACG

Variants of: B1
Assay: yeast fitness relative to wild type (ratio to wild type); higher = fitter; tRNA-Arg(CCU), competitive growth, 37 C, YPD
Variants at the floor of the assay were thinned out.
Assign class by yeast fitness: not lower than 0.6 means 1 (yes); lower than 0.6 means 0 (no).

Please review the entries below; each comes with its answer.
>  <mutationSpec>
C30U G44A G48C A70G

>  <category>
0 (no)

$$$$
>  <mutationSpec>
G6C C24U

>  <category>
1 (yes)

$$$$
>  <mutationSpec>
G12A A14U C66A A70G

>  <category>
0 (no)

$$$$
>  <mutationSpec>
A14G G39A A43U

>  <category>
1 (yes)

$$$$
>  <mutationSpec>
G6C A14G C49G G50A

>  <category>
0 (no)

$$$$

Identify whether the reported yeast fitness of the following variant is 0.6 or greater: G12C A14G G25A G41C U54G A65G G68U A70C
0 (no)

Identify whether the reported yeast fitness of the following variant is 0.6 or greater: C5U C29U G50C U59A
0 (no)

Identify whether the reported yeast fitness of the following variant is 0.6 or greater: G10C G63C
0 (no)
